src = PubChem BioAssay AID2060360

Test system: 282377-053-R-J1-PDC tumor spheroids, viability
PROCEDURE SUMMARY: Anticancer human tumor 282377-053-R-J1-PDC patient-derived colon adenocarcinoma cell line growth inhibition [TAK]
MEASUREMENT CONTEXT: second compound 0.3 µM; first compound 0.0316 µM; hits give low values; spheroids with HUVEC and MSC
OBSERVATION TYPE: viability, T/C (%)
Give the value in % but do not write % after it.

Reference set, count: 2
MOLECULE	MEASUREMENT UNITS	viability, T/C
COC1CC2CCC(C)C(O)(O2)C(=O)C(=O)N2CCCCC2C(=O)OC(C(C)CC2CCC(OCCO)C(OC)C2)CC(=O)C(C)C=C(C)C(O)C(OC)C(=O)C(C)CC(C)C=CC=CC=C1C (stereo not drawn) + CC(C)NCC(C(=O)N1CCN(c2ncnc3c2C(C)CC3O)CC1)c1ccc(Cl)cc1	%	93.7
CC(C)n1nc(-c2ccc3oc(N)nc3c2)c2c(N)ncnc21 + CC(C)NCC(C(=O)N1CCN(c2ncnc3c2C(C)CC3O)CC1)c1ccc(Cl)cc1	%	69.7

Consider now this further molecule.
Ask: Which measured viability, T/C value corresponds to Cc1nc(NC(=O)N2CCCC2C(N)=O)sc1-c1ccnc(C(C)(C)C(F)(F)F)c1 (stereo not drawn) + CC(C)NCC(C(=O)N1CCN(c2ncnc3c2C(C)CC3O)CC1)c1ccc(Cl)cc1 ?
Reply: 99.7

----------
Test system: 282377-053-R-J1-PDC tumor spheroids, viability
PROCEDURE SUMMARY: Anticancer human tumor 282377-053-R-J1-PDC cell line growth inhibition [TAK];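 also: spheroids exposed to drugs for seven days before readout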
MEASUREMENT CONTEXT: second compound 0.949 µM; first compound 0.00316 µM; hits give low values; spheroids with HUVEC and MSC
Reported viability, T/C values are given for each entry in this list.

COMPOUND	viability, T/C
CC(C)CC(NC(=O)CNC(=O)c1cc(Cl)ccc1Cl)B1OC(=O)CC(CC(=O)O)(C(=O)O)O1 (stereo not given) + CC(C)NCC(C(=O)N1CCN(c2ncnc3c2C(C)CC3O)CC1)c1ccc(Cl)cc1	87.1%
CC(C)n1nc(-c2ccc3oc(N)nc3c2)c2c(N)ncnc21 + CC(C)NCC(C(=O)N1CCN(c2ncnc3c2C(C)CC3O)CC1)c1ccc(Cl)cc1	86.3%
COc1c(OCCCN2CCOCC2)ccc2c3n(c(=NC(=O)c4cnc(N)nc4)nc12)CCN3 + CC(C)NCC(C(=O)N1CCN(c2ncnc3c2C(C)CC3O)CC1)c1ccc(Cl)cc1	94.9%

Ask: Which measured viability, T/C value corresponds to CC(C)CC(NC(=O)C(Cc1ccccc1)NC(=O)c1cnccn1)B(O)O (stereo not given) + CC(C)NCC(C(=O)N1CCN(c2ncnc3c2C(C)CC3O)CC1)c1ccc(Cl)cc1 ?
Reply: 93.1%

Ask: Which measured viability, T/C value corresponds to COC1CC2CCC(C)C(O)(O2)C(=O)C(=O)N2CCCCC2C(=O)OC(C(C)CC2CCC(OCCO)C(OC)C2)CC(=O)C(C)C=C(C)C(O)C(OC)C(=O)C(C)CC(C)C=CC=CC=C1C (stereo not given) + CC(C)NCC(C(=O)N1CCN(c2ncnc3c2C(C)CC3O)CC1)c1ccc(Cl)cc1 ?
Reply: 91.8%

----------
Tested on: 282377-053-R-J1-PDC tumor spheroids, viability
PROCEDURE SUMMARY: Anticancer human tumor 282377-053-R-J1-PDC cell line growth inhibition [TAK];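 also: spheroids exposed to drugs for seven days before readout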
MEASUREMENT CONTEXT: second compound 0.949 µM; first compound 0.000316 µM; hits give low values; spheroids with HUVEC and MSC
Reported viability, T/C values are given for each entry in this list.
Give the value in % but do not write % after it.

COMPOUND	MEASUREMENT UNITS	viability, T/C
COC1CC2CCC(C)C(O)(O2)C(=O)C(=O)N2CCCCC2C(=O)OC(C(C)CC2CCC(OCCO)C(OC)C2)CC(=O)C(C)C=C(C)C(O)C(OC)C(=O)C(C)CC(C)C=CC=CC=C1C (centres undefined) + CC(C)NCC(C(=O)N1CCN(c2ncnc3c2C(C)CC3O)CC1)c1ccc(Cl)cc1	%	93.3
CC(C)n1nc(-c2ccc3oc(N)nc3c2)c2c(N)ncnc21 + CC(C)NCC(C(=O)N1CCN(c2ncnc3c2C(C)CC3O)CC1)c1ccc(Cl)cc1	%	92

Ask: Which measured viability, T/C value corresponds to CC(C)CC(NC(=O)C(Cc1ccccc1)NC(=O)c1cnccn1)B(O)O (centres undefined) + CC(C)NCC(C(=O)N1CCN(c2ncnc3c2C(C)CC3O)CC1)c1ccc(Cl)cc1 ?
Reply: 92.5

Ask: Which measured viability, T/C value corresponds to CC(C)CC(NC(=O)CNC(=O)c1cc(Cl)ccc1Cl)B1OC(=O)CC(CC(=O)O)(C(=O)O)O1 (centres undefined) + CC(C)NCC(C(=O)N1CCN(c2ncnc3c2C(C)CC3O)CC1)c1ccc(Cl)cc1 ?
Reply: 100
